src = patent US20260223850A1

Tested on: Echinochloa crusgalli
procedureDetails: Seedling stage sealing experiment for water-seeding
Assay type: in vivo
conditions: 120 g a.i./ha, seedling stage sealing, 15 days, fresh weight control rate
endpoint: Echinochloa crusgalli activity level (growth control rate)
Give a plain numeric answer without units written out.

stdin: May I ask what Echinochloa crusgalli activity level (growth control rate) has been recorded for `Cc1cccc([C@H]2CN(C)C(=O)[C@@H]2C(=O)Nc2cnn(C)c2C2CC2)c1` ?
stdout: 9

stdin: Try this molecule too: `CN1C[C@H](c2cccc(C(F)(F)F)c2)[C@@H](C(=O)Nc2cnn(C(F)F)c2Cl)C1=O`
stdout: 9

====

System: Echinochloa crusgalli
procedureDetails: Seedling stage sealing experiment for water-seeding
Assay type: in vivo
conditions: 120 g a.i./ha, seedling stage sealing, 15 days, fresh weight control rate
endpoint: Echinochloa crusgalli activity level (growth control rate)
Answer field: number only, no words.

stdin: Request: Echinochloa crusgalli activity level (growth control rate), test system Echinochloa crusgalli, entry C=Cc1c(NC(=O)[C@H]2C(=O)N(C)C[C@@H]2c2cccc(C(F)(F)F)c2)cnn1C(F)F [406′]
stdout: 9

stdin: Now the same for CCn1ncc(NC(=O)[C@H]2C(=O)N(C)C[C@@H]2c2cccc(C)c2)c1C1CC1 [394′]
stdout: 9

====

System: Mythimna separata
procedureDetails: Insecticidal activity assay, spraying method
Format: in vivo
conditions: 500 ppm, 3rd instar, spray, 48 h after drug application
For each of the compounds below, state its Mythimna separata/% (mortality).
Write the answer as a number in %, unit excluded.

stdin: May I ask what Mythimna separata/% (mortality) has been recorded for C#CCn1ncc(NC(=O)[C@H]2C(=O)N(C)C[C@@H]2c2cc(C)cc(C)c2)c1Cl [420′] ?
stdout: 90

stdin: // repeat for C=CCn1ncc(NC(=O)[C@H]2C(=O)N(C)C[C@@H]2c2cc(C)cc(C)c2)c1Cl [270′] and report
stdout: 75

stdin: Again, but for Cc1cc(C)cc([C@H]2CN(C)C(=O)[C@@H]2C(=O)Nc2cnn(C)c2-c2ccc(Cl)cc2)c1 [281′]
stdout: 60

stdin: Follow-up entry: Cc1cc(C)cc([C@H]2CN(C)C(=O)[C@@H]2C(=O)Nc2cnn(C(=O)OC(C)(C)C)c2Cl)c1 [491′]
stdout: 70

stdin: Would you mind doing Cc1ccc([C@H]2CN(C)C(=O)[C@@H]2C(=O)Nc2cnn(C)c2Cl)o1 [522′] as well?
stdout: 70

stdin: Input Cc1cc(C)cc([C@H]2CN(C)C(=O)[C@@H]2C(=O)Nc2cnn(C)c2C=O)c1 [500′]
stdout: 70

stdin: Next compound: Cc1cc(C)cc([C@H]2CN(C)C(=O)[C@@H]2C(=O)Nc2cnn(-c3ccccc3)c2Cl)c1 [421′]
stdout: 75
